Literature Ki values, system: the protein given by its sequence.
Target sequence: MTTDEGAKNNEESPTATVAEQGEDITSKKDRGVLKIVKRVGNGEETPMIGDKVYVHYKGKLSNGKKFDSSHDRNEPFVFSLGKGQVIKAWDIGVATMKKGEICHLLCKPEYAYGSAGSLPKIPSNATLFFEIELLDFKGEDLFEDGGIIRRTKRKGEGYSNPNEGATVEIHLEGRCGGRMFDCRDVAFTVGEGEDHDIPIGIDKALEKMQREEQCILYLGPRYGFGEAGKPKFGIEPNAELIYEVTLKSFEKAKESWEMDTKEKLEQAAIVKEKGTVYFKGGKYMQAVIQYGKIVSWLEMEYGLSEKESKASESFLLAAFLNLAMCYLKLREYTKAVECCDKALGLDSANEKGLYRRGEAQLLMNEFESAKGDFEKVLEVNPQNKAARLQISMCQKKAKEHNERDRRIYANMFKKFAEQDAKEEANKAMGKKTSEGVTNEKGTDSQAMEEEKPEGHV
Report as a plain number; the unit nM is understood.

State the recorded Ki for this entry: "COc1ccc(CC[C@@H](OC(=O)[C@@H]2CCCCN2C(=O)[C@@H]2CCC[C@@H]3CCCC[C@H]32)c2cccc(OCC(=O)O)c2)cc1OC"
810

State the recorded Ki for this entry: "COc1ccc(CC[C@@H](OC(=O)[C@@H]2CCCCN2C(=O)[C@@H]2C[C@H]3OC(C)(C)O[C@H]3[C@@H]3CCCC[C@H]32)c2cccc(OCCN3CCOCC3)c2)cc1OC"
8200

State the recorded Ki for this entry: "COc1cc2c(c(OC)c1)[C@]1(C)C3CCC[C@@H](C(=O)N1CC2)N3C(=O)C(=O)c1cc(OC)c(OC)c(OC)c1"
18100

State the recorded Ki for this entry: COc1ccc(CCC(OC(=O)C2CCCCN2C(=O)[C@@H]2CCC(=O)[C@@H]3CCCC[C@H]32)c2cccc(OCCN3CCOCC3)c2)cc1OC (single isomer, unassigned)
230

State the recorded Ki for this entry: "COc1ccc(CC[C@@H](OC(=O)[C@@H]2CCCCN2C(=O)[C@H](c2cc(OC)c(OC)c(OC)c2)C2CCCCC2)c2cccc(OCC(=O)O)c2)cc1OC"
4
